- Test system: RXF 393 renal
- testDescription: NCI-60 one-dose screen, 48 h (100 = growth as untreated, 0 = no growth, -100 = all killed)
- experimentalConditions: 10 µM unless noted
About 83,000 compounds went through this panel and 20% of them were active in at least one assay; those are over-represented in the sample as a whole.
Parameter threshold = 70%. Response is TRUE when growth meets or exceeds it, else FALSE.

# compound, categoryLabel
measured = [
    ("C=C(CN1CCN(c2cccc(C(F)(F)F)n2)CC1)c1ccc(C(=O)Nc2ccccc2N)cc1", "FALSE"),
]

Problem: I'd appreciate it if you could say whether "CSc1nc2sc3c(c2c(=O)n1-c1ccc(C(C)C)cc1)CCC(=O)C3" has growth at least equal to 70%.
Result: FALSE

Problem: I'd appreciate it if you could say whether COc1ccc(C2Nc3ccccc3-n3cccc32)cc1 (stereo unspecified) has growth at least equal to 70%.
Result: TRUE

Problem: I'd appreciate it if you could say whether "Oc1ccccc1N=Cc1c(O)ccc2ccccc12" has growth at least equal to 70%.
Result: TRUE

Problem: I'd appreciate it if you could say whether "CNC(=O)c1cc(Oc2ccc3nc(NC(=O)Nc4ccc(CN5CCOCC5)c(C(F)(F)F)c4)sc3c2)ccn1" has growth at least equal to 70%.
Result: FALSE

Problem: I'd appreciate it if you could say whether "CCN(CC)CCCCNc1ccc(NCCCCN(CC)CC)c2c1C(=O)c1ccccc1C2=O" has growth at least equal to 70%.
Result: TRUE

Problem: I'd appreciate it if you could say whether "CC/C=C\C[C@H](F)C/C=C1/C(=O)C=C[C@@H]1C/C=C\CCCC(=O)OC" has growth at least equal to 70%.
Result: FALSE

Problem: I'd appreciate it if you could say whether "Nc1ccc(Nc2nccc(-c3ccc4ccccc4c3)n2)cc1" has growth at least equal to 70%.
Result: FALSE

Problem: I'd appreciate it if you could say whether "COc1ccc2c(c1)C(=O)/C(=C/c1cccc(OCC(=O)Nc3nc4c(s3)CCCC4)c1)O2" has growth at least equal to 70%.
Result: FALSE

Problem: I'd appreciate it if you could say whether "c1ccc2sc(SCCCn3ccnc3)nc2c1" has growth at least equal to 70%.
Result: TRUE

Problem: I'd appreciate it if you could say whether "COc1ccc(/C=N\NC(=O)CN2CCN(c3cc4c(cc3F)c(=O)c(C(=O)N/N=C/c3ccc(OC)cc3)cn4C3CC3)CC2)cc1" has growth at least equal to 70%.
Result: TRUE

Problem: I'd appreciate it if you could say whether "O=[N+]([O-])c1cccc(-c2nc3sccn3c2-c2ccnc(NCCCNS(=O)(=O)c3cccc(F)c3)n2)c1" has growth at least equal to 70%.
Result: FALSE

Problem: I'd appreciate it if you could say whether "CC(=O)CC(C)(C)c1ccc(Cl)cc1" has growth at least equal to 70%.
Result: TRUE

Problem: I'd appreciate it if you could say whether "NS(=O)(=O)c1ccc(-n2ncc3c(=O)[nH]c(CN4CCN(c5cc6c(cc5F)c(=O)c(C(=O)O)cn6C5CC5)CC4)nc32)cc1" has growth at least equal to 70%.
Result: TRUE

Problem: I'd appreciate it if you could say whether CCOC(=O)C(CC)n1c(=O)c2cc(OC)c(OC)cc2c2cnc3[nH]ccc3c21 (stereo unspecified) has growth at least equal to 70%.
Result: FALSE

Problem: I'd appreciate it if you could say whether "CC/C(=C(\c1ccccc1)c1ccc(OCCNC)cc1)c1ccccc1" has growth at least equal to 70%.
Result: FALSE

###

- System: SN12C renal
- testDescription: NCI-60 one-dose screen, 48 h
- experimentalConditions: 10 µM unless noted
About 83,000 compounds went through this panel and 20% of them were active in at least one assay; those are over-represented in the sample as a whole. The source made the active and inactive calls. The calls were made as follows: active = growth percent below 10; inactive = the rest.
Entry note: the call must match one of T (active), F (inactive)

// known answers, use as guide
# molecule, categoryLabel
measured = [
    ("O=C1C[C@H](Sc2nc(-c3ccc(F)cc3)cc(C(F)(F)F)n2)[C@H]2CO[C@@H]1O2", "F"),
    ("N#Cc1ccc(NC(=O)Nc2ccc(Cc3ccc(NC(=O)Nc4ccc(C#N)cc4)cc3)cc2)cc1", "F"),
    ("COc1ncc(-c2ccc3ncnc(Nc4cccc(Cl)c4)c3c2)cc1NS(C)(=O)=O", "F"),
    ("CCOC(=O)C(CC)n1c(=O)c2cc(OC)c(OC)cc2c2cnc3[nH]ccc3c21 (stereo not drawn)", "F"),
    ("CCCCCCCCCCCCCCCC(=O)OCC1OC(n2cnc3c(=S)nc(N)[nH]c32)C(OC(=O)CCCCCCCCCCCCCCC)C1OC(=O)CCCCCCCCCCCCCCC (stereo not drawn)", "F"),
    ("Cc1cc(-c2nc3ccccc3s2)ccc1NC(=O)COc1ccc(Cl)cc1", "F"),
]

Problem: Field: outcome | Entry: "O=C(NCc1cccc(C(F)(F)F)c1)[C@H](CCC(=O)N1CCN(C2CCCCC2)CC1)N1C(=O)[C@@H](N2C(=O)OC[C@@H]2c2ccccc2)[C@H]1/C(Cl)=C/c1ccccc1"
Result: F

Problem: Field: outcome | Entry: "CN1CCN(Cc2ccc(NC(=O)c3[nH]ncc3Nc3ncnc4c3CCC4)cc2)CC1"
Result: T

Problem: Field: outcome | Entry: "O=C(CCN1CCOCC1)Nc1ccc(Cn2nnc3c2C(=O)c2nnn(Cc4ccc(NC(=O)CCN5CCOCC5)cc4)c2C3=O)cc1"
Result: T

Problem: Field: outcome | Entry: "CC(C)(C)c1nn(-c2ccccc2)c2c1CC1(CN2Cc2ccc3c(c2)OCO3)C(=O)c2ccccc2C1=O"
Result: F

Problem: Field: outcome | Entry: "CCOC(=O)N1CCN(c2nc(Nc3cc(C)[nH]n3)c3ccccc3n2)CC1"
Result: F

Problem: Field: outcome | Entry: "O=C1c2cc3c(cc2-c2c1c1cc(F)c(F)cc1c(=O)n2C[C@H](O)CO)OCO3"
Result: T

###

- Tested on: MCF7 breast
- testDescription: NCI-60 one-dose screen, 48 h (100 = growth as untreated, 0 = no growth, -100 = all killed)
- experimentalConditions: 10 µM unless noted
About 83,000 compounds went through this panel and 20% of them were active in at least one assay; those are over-represented in the sample as a whole.
Parameter threshold = 40%. Response is Condition met when growth meets or exceeds it, else Condition not met.

// known answers, use as guide
# compound, measuredTarget, categoryLabel
records = [
    ("CCCCCCCCCCCCN1CCCC(C)C1 (configuration not stated)", "MCF7 breast", "Condition met"),
    ("CCOC(=O)C12CCCC1=CC(=O)CC2 (configuration not stated)", "MCF7 breast", "Condition met"),
    ("CCCCCC(=O)N(CCCC)CCCC", "MCF7 breast", "Condition met"),
    ("CN(C)c1ccc(C2Nc3ccccc3-n3cccc32)cc1 (configuration not stated)", "MCF7 breast", "Condition not met"),
    ("O=C1CC(c2nc3ccccc3s2)CN1C1CCCCC1 (configuration not stated)", "MCF7 breast", "Condition met"),
]

Problem: I'd appreciate it if you could say whether "O=S(=O)(NCCCNc1cc(-c2cn(-c3ccccc3)nc2-c2cccc(O)c2)ccn1)c1ccccc1" has growth at least equal to 40%.
Result: Condition not met

Problem: I'd appreciate it if you could say whether "Cc1ccc2c(c1)C(=O)c1c-2c(OCCCN(C)C)nc2ccccc12" has growth at least equal to 40%.
Result: Condition not met

Problem: I'd appreciate it if you could say whether "CC(=O)/C(=C/c1cccc(Cl)c1)C(=O)c1ccccc1" has growth at least equal to 40%.
Result: Condition not met

Problem: I'd appreciate it if you could say whether "COc1ccccc1-c1ccc2c(N)c(C(=O)c3ccc4c(c3)OCO4)sc2n1" has growth at least equal to 40%.
Result: Condition not met

Problem: I'd appreciate it if you could say whether COc1c(C2CC(=O)Nc3c2cnn3Cc2ccco2)cc2c(c1OC)OCO2 (configuration not stated) has growth at least equal to 40%.
Result: Condition not met

###

- Test system: TK-10 renal
- testDescription: NCI-60 one-dose screen, 48 h (100 = growth as untreated, 0 = no growth, -100 = all killed)
- experimentalConditions: 10 µM unless noted
- Method: Growth inhibition of the TK-10 human tumor cell line is measured as a screen for anti-cancer activity. Cells are grown in 96 well plates and exposed to the test compound for 48 hours. Compounds are tested at a single concentration, which is 10^-5 M for most compounds. The reported endpoint is percent growth (GI% or GIPRCNT), where numbers from 0 - 100% represent growth inhibition, and numbers from -100% - 0 represent cell death. For example, a value of 40 represents 60% growth inhibition. […]
The panel holds about 83,000 compounds, 20% with a hit somewhere; the sample as a whole holds those more often.
# growth values compiled below
Expressed in %, but write only the number.

# compound, measuredTarget, u, measuredNumber
rows = [
    ("N#Cc1c2c(nc3n[nH]c(N)c13)CCCC2", "TK-10 renal", "%", 128),
]

Problem: Give the measured growth of "CC1(C)CC(=O)C(c2c(-c3ccccc3)[nH]c3[nH]c(=S)[nH]c(=O)c23)=C(O)C1" .
Result: 107

Problem: Give the measured growth of O=C1OC2C(I)C3CC2C1C3c1ccccc1 (stereo not drawn) .
Result: 145

Problem: Give the measured growth of "O=C(O)c1cccnc1Br" .
Result: 113

Problem: Give the measured growth of "CC[n+]1ccc2c(c1)C(=O)c1nccc3c1c-2nc1ccccc13" .
Result: 18.7

Problem: Give the measured growth of "COc1c(Cl)cc(Cl)cc1Cl" .
Result: 109
